Reference source for all entries: patent US20260217698A1

Assay: Solubility test in buffer, LC-MS
Type: physicochemical
Details: aqueous buffer, thermodynamic from solid, room temperature, shaking 8 h, pH not given (method: pH 2.0, 6.5, 7.4)
value-kind: solubility at 8 h (µg/mL)

For "NC(=O)c1c(OCc2c(F)cc(Br)cc2F)nsc1NC(=O)NCCCCN1CCCC1" , what is its reported solubility at 8 h?
124

"CCNC(=O)c1ccc(F)c(COc2nsc(NC(=O)NCCC3CCN(CCF)CC3)c2C(N)=O)c1" , same question.
1640

"NC(=O)c1c(OCc2cc(C(=O)NC3CC3)ccc2F)nsc1NC(=O)NCCCN1CC[C@H](F)C1" , same question.
1090

"NC(=O)c1c(OCc2cccc(C(=O)NC3CC3)c2)nsc1NC(=O)NCCCCN1CCCC1" , same question.
2000

"NC(=O)c1c(OCc2ccc3c(c2F)OCC3)nsc1NC(=O)NCCCCN1CCCC1" , same question.
133

P. CN1CCN(CCCNC(=O)Nc2snc(OCc3ccc(F)c(C(=O)NC4CC4)c3)c2C(N)=O)CC1
Q. NC(=O)c1c(OCc2ccc(OC(F)F)c(F)c2)nsc1NC(=O)NCCCCN1CCCC1
R. CNC(=O)c1cccc(COc2nsc(NC(=O)NCCC3CCN(C)CC3)c2C(N)=O)c1
Rank the items in ascending order with respect to solubility at 8 h. Please write the labels in the order that was asked for.
R, Q, P
(R: 144 µg/mL, Q: 478 µg/mL, P: 800 µg/mL)
